Where do the numbers come from? From patent US20250270296A1.

substrate: S protein of SARS-CoV-2 variant B.1.351 (SA, Beta), full length, on pseudovirus (SARS-CoV-2), P0DTC2; assay: cell-based or functional assay
OUTCOME MEASURE: SARS-CoV2 pseudovirus IC50 (µg/mL)
# value in µg/mL; strip the unit string

Query string: Entry RBD-chAb-28 (antibody, V domains shown) VH: QVQLQQPGTELVMPGASVKMSCKASGYTFTDYYLHWMKQRPGQGLEWIGAIDSSDSYTDYNQNFKGKATLTVDESSSTAYMHLSSLTSEDSAVYYCARGKDAYDRRPWFAYWGQGTLVTVSA VL: DIQMTQTTSSLSASLGDRVTISCSASQGIRYYLNWYQQKPDGTVKLLIYYTSNLHSGVPSRFSGSGSGTDYSLTISNLEPEDIATYYCQQYNKLPYTFGGGTKLDIK has what SARS-CoV2 pseudovirus IC50?
Result string: 0.0165

Query string: Entry RBD-chAb-45 (antibody, V domains shown) VH: EVQLQQSGPELVKPGASVKISCKTSGYTFTEYTIYWVKQSLGKSLEWIGGNNPNNDDTTYKQFFKGKATLTVDKSSSTAYMELRSLTSEDSAVYYCARDGYPYYYALDFWGQGTSVTVSS VL: DILMTQSQKFMSTSVGDRVSVTCKSSQNVGTNVAWYQQKPGQSPKALIYSASYRYSGVPDHFTGSGSGTDFTLTISNVQSADLAEYFCQQYNNYPWTFGGGTKLDIK has what SARS-CoV2 pseudovirus IC50?
Result string: 0.00268

Query string: Entry RBD-chAb-15 (antibody, V domains shown) VH: EVQLEESGPGLVQPSQSLSITCTVSDFSLTTYGVHWVRQSPGKGLEWLGVIWSGGSTDYNAAFISRLSISKDNSKSQVFFKMNSLQTNDTAIYYCARMGDGYYVGAMDYWGQGTSVTVSS VL: DIQLTQSPAILSVSPGERVSFSCRASQSIGTSIHWYQQRTNGSPRHLIKYASESISGIPSRFSGSGSGTDFTLTINGVESEDIADYYCQQGHNWPLTFGAGTKLDIK has what SARS-CoV2 pseudovirus IC50?
Result string: 0.0301
